- experimental.target: T1, 4H2931-bN
- T1 chain: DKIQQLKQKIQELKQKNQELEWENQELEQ
- assay.comment: two-hybrid library CCNG1;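 also: natural log of median RNA to DNA barcode read ratio; higher means stronger binding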
quantity: interaction score

1. DKIQQLKQEIQELEQENQELKWEIQELEQ [4H2585-bN] | -0.905

(a) DKIQQLKQKIQELKQKNQELEWENQELEQ [4H2931-bN]
(b) DKIQQLEQEIQELKQKNQELEWEIQELKQ [4H2162-bN]
# input Task for the reader: decide whether a or b has the larger interaction score. Select an item and report its label.
# output a

(a) DKIQQLEQKNQELEQEIQELKWENQELKQ [4H2444-bN]
(b) DKIQQLKQKIQELEQKIQELKWENQELEQ [4H2859-bN]
(c) DEIQQLEQKIQELEQEIQELEWKNQELKQ [4H264-bN]
(d) DEIQQLEQENQELEQKIQELEWKIQELKQ [4H166-bN]
(e) DEIQQLEQENQELKQKIQELKWENQELEQ [4H235-bN]
# input Which order do these items take when sorted by rising interaction score? List them. Provide the labels, sequenced as the question asks.
# output e, b, d, a, c
